molecular target: E. coli dihydrofolate reductase (DHFR) (Escherichia coli); test: biochemical; type: binding; settings: approximate, computed from the thermal shift; read-out: KD
Sequence (P0ABQ4 whole entry): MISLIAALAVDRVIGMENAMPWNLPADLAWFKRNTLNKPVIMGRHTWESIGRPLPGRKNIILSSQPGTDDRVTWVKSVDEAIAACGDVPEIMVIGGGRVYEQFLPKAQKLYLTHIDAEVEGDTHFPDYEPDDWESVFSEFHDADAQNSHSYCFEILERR
pKd: −log10 of the molar value.
Recorded endpoint: pKd

> print(dat)
                               given.smiles  recorded.endpoint  value.measured
1  O=C(Nc1ccc(Oc2ccc(NC(=O)Nc3ccc([N+](=O)[O-])cc3)cc2)cc1)Nc1ccc([N+](=O)[O-])cc1                pKd            5.77

====

Reported pKd values follow for various compounds
molecular target: E. coli dihydrofolate reductase (DHFR) (Escherichia coli); assay: biochemical; type: binding; conditions: Table S3; computed from the thermal shifts obtained; read-out: KD (Approx)
pKd: −log10 of the molar value.

Compound	pKd
CCOc1ccc(NC(=O)c2cc3ccccc3cc2O)cc1	~3.33
Nc1ccc(-c2nc3nc(N)nc(N)c3nc2-c2ccc(N)cc2)cc1 [NSC 61642, reference compound]	~5.69
C#CCC(Cc1cnc2nc(N)nc(N)c2n1)c1ccc(C(=O)N[C@@H](CCC(=O)O)C(=O)O)cc1 (stereo partly shown) [NSC 754230, pralatrexate, reference compound]	~6.30
N/C(CC(=O)Nc1cc(C(F)(F)F)ccc1Cl)=N\O	~4.54

====

target: 1000001: Carboxy-terminus phosphatase domain of protein tyrosine phosphatase (2NV5) (Mus musculus, UniProt Q64487); construct: The C-terminal phosphatase domain from R. norvegicus (PDB ID: 2NV5) (1000001); New York structural genomics consortium (gift); assay: Thermal shift (thermal melt) assay, Sypro orange; format: binding, M. musculus; conditions: Table S4; protein 1000001; computed from the thermal shifts obtained; read-out: KD (Approx)
Sequence (Q64487 1331-1621): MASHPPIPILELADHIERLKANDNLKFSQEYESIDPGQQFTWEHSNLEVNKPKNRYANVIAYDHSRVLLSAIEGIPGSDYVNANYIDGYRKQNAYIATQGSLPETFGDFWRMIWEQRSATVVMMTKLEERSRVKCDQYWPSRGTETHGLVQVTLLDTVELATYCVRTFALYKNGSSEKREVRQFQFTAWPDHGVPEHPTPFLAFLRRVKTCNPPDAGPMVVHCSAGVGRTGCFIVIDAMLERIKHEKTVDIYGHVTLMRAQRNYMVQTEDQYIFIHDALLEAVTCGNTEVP
pKd: −log10 of the molar value.
Recorded endpoint: pKd

> print(dat)
                      given.smiles  recorded.endpoint  value.measured
1            Oc1cccc2nc3ccccc3nc12                pKd           ~5.83
2  O=S(=O)(O)c1ccc(N=Nc2ccccc2)cc1                pKd           ~4.36
3   COc1cc(N=Nc2ccccc2C(=O)O)ccc1O                pKd           ~5.66
